Recorded %Inh values for a group of compounds are listed next.
System: YANK3;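 note: KINOMEscan kinase panel screen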
Construct: gene STK32C
Details: concentration: 1 μM, replicates: in singlicate; n = 1
endpoint: %Inh (%)

[[record]]
compound = "COc1cc(Nc2nccc(N3CCC(NC(=O)Nc4cc(C)ccc4C)C3)n2)cc(OC)c1OC (stereo not shown)"
unit_text = "%"
observed = 10

[[record]]
compound = "O=c1cc(N2CCOCC2)nc2n(Cc3cccc(Cl)c3Cl)ccn12"
unit_text = "%"
observed = 0

[[record]]
compound = "CC1=C(C(=O)Nc2cc3cn[nH]c3cc2F)C(c2ccc(C(F)(F)F)cc2)CC(=O)N1 (stereo not shown)"
unit_text = "%"
observed = 24

[[record]]
compound = "Cc1ccc(C(=O)Nc2ccc(Nc3ccnc4cc(-c5ccccn5)ccc34)cc2O)cc1.Cl"
unit_text = "%"
observed = 30

[[record]]
compound = "COc1cccc(-c2cc(-c3c[nH]nc3-c3ccccn3)ccn2)c1"
unit_text = "%"
observed = 0

[[record]]
compound = "Cc1ccc(-c2cc(-c3c[nH]nc3-c3ccccn3)ccn2)cc1"
unit_text = "%"
observed = 0

[[record]]
compound = "COc1cc2ncn(-c3cc(OCC4CCCO4)c(C(N)=O)s3)c2cc1OC (stereo not shown)"
unit_text = "%"
observed = 0

[[record]]
compound = "Cc1c(O)cccc1Nc1ccnc2ccc(C(F)(F)F)cc12.Cl"
unit_text = "%"
observed = 15

[[record]]
compound = "Cc1nnc(-c2ccc3occ(-c4ccc(S(C)=O)cc4)c3c2)[nH]1 (stereo not shown)"
unit_text = "%"
observed = 0

[[record]]
compound = "O=C1NC(=O)C(N2CCc3ccccc32)=C1c1ccccc1Cl"
unit_text = "%"
observed = 20

[[record]]
compound = "Cn1ccc2ncnc(Oc3ccc(NC(=O)Nc4ccccc4)cc3)c21"
unit_text = "%"
observed = 0

[[record]]
compound = "CS(=O)(=O)c1ccc(-c2c(-c3ncn[nH]3)sc(N3CCOCC3)c2C#N)cc1"
unit_text = "%"
observed = 16

[[record]]
compound = "CC(=O)Nc1nc2cnc(Nc3cc(NC(=O)c4cccc(CCC#N)c4)ccc3C)nc2s1"
unit_text = "%"
observed = 34

[[record]]
compound = "COc1ccc(Nc2nccc(NCCNC(=O)Nc3ccccc3F)n2)cc1"
unit_text = "%"
observed = 0

[[record]]
compound = "Cc1cccc(-c2nc(Nc3ccc4[nH]ncc4c3)c3ccccc3n2)n1"
unit_text = "%"
observed = 59

[[record]]
compound = "CN1C(=O)C(Nc2ccc(Cl)c(C(=O)O)c2)=C(c2ccc(Cl)cc2)C1=O"
unit_text = "%"
observed = 0

[[record]]
compound = "CCn1c(-c2ccccn2)nc2cnccc21"
unit_text = "%"
observed = 32

[[record]]
compound = "COc1ccc(C2=C(Nc3cccc(C(=O)O)c3)C(=O)NC2=O)cc1"
unit_text = "%"
observed = 0

[[record]]
compound = "Fc1cc(Cl)ccc1Nc1ccnc2cc(-c3ccc(CN4CCCCC4)o3)ccc12"
unit_text = "%"
observed = 0


Reference for the values: paper PMC5540273
